# study-system: γ-secretase (Aβ1-40 production) (Homo sapiens)
# Construct: made in house; host or cells: S-1 CHO cell line (Chinese hamster ovary)
# experimental-protocol: γ-Secretase assay, Aβ1-40 ELISA
# Type: biochemical
# test-context: 100 μM
reported-endpoint: inhibition at 100 µM (%)

In the examples that follow, each entry is paired with its recorded inhibition at 100 µM.
compound="CC(C)N(CCC(O)c1ccc2ccccc2c1)Cc1cccc(C#N)c1 (centres unmarked)" study_system="γ-secretase (Aβ1-40 production) (Homo sapiens)" readout_units=% assay_result=7
compound="CC(C)N(CCCC(O)c1cccc2ccccc12)Cc1ccccc1 (centres unmarked)" study_system="γ-secretase (Aβ1-40 production) (Homo sapiens)" readout_units=% assay_result=0
compound="Cc1ccc(NCCC(O)c2ccc3ccccc3c2)cc1F (centres unmarked)" study_system="γ-secretase (Aβ1-40 production) (Homo sapiens)" readout_units=% assay_result=0
compound="CC(C)N(CCC(O)c1ccc2ccccc2c1)Cc1ccc(Cl)c(Cl)c1 (centres unmarked)" study_system="γ-secretase (Aβ1-40 production) (Homo sapiens)" readout_units=% assay_result=60
compound=CC(C)N(CC[C@@H](O)c1ccc2ccccc2c1)Cc1ccccc1 study_system="γ-secretase (Aβ1-40 production) (Homo sapiens)" readout_units=% assay_result=0
compound="CC(C)N(CCC(O)c1ccc(C(F)(F)F)cc1)Cc1ccccc1 (centres unmarked)" study_system="γ-secretase (Aβ1-40 production) (Homo sapiens)" readout_units=% assay_result=27
compound="CC(C)N(CCC(O)c1ccc2ccccc2c1)Cc1ccccc1 (centres unmarked)" study_system="γ-secretase (Aβ1-40 production) (Homo sapiens)" readout_units=% assay_result=16
compound="CCOc1ccc(NCCC(O)c2ccc(F)cc2)cc1 (centres unmarked)" study_system="γ-secretase (Aβ1-40 production) (Homo sapiens)" readout_units=% assay_result=0

[A] OC(CCN(C1CCCCC1)C1CCCCC1)c1ccc2ccccc2c1 (centres unmarked)
[B] Cc1cccc(C)c1C(O)CCN(Cc1ccccc1)C(C)C (centres unmarked)
[C] OC(CCNc1ccc(Cl)c(Cl)c1)c1ccc2ccccc2c1 (centres unmarked)
[D] CCOc1ccc(NCCC(O)c2ccc3ccccc3c2)cc1 (centres unmarked)
[E] OC(CCN1CCC2(CC1)OCCO2)c1ccc2ccccc2c1 (centres unmarked)
Please list these in order of increasing inhibition at 100 µM. Thank you! As an answer, provide the labels arranged in the order called for.
C, E, A, B, D
(C: 0%, E: 2%, A: 7%, B: 20%, D: 40%)

// provenance: patent US20100286164A1
